Data provenance: patent US20200017592A1

TEST_TARGET: T1, in-line fusion protein of human IL-36R extracellular domain and IL1RAcP extracellular domain expressed with … (human; mouse, UniProt Q9HB29 20-337; Q9NPH3 21-359, limits assumed)
T1 construct: not shown: mouse IgG2a Fc
T1 sequence (looked up): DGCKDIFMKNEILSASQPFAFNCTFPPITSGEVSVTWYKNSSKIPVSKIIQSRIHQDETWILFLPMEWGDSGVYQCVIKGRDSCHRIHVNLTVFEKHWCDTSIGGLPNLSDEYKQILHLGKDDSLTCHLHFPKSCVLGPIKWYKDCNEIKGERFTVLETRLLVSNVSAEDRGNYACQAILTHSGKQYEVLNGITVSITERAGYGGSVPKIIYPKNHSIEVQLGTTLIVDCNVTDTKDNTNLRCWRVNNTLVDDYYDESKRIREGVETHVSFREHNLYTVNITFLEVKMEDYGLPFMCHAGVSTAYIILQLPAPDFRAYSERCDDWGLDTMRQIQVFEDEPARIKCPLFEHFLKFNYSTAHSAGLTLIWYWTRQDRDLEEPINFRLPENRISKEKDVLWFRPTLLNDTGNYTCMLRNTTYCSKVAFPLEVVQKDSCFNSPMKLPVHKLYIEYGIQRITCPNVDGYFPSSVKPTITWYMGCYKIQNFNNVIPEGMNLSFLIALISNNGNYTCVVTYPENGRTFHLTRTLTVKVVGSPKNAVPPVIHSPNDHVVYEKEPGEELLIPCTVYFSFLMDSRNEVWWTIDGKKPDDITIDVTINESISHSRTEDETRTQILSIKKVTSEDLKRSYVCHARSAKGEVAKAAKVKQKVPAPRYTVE
PROTOCOL_DESCRIPTION: SPR Biacore 4000, mAb captured on anti-hFc, 37C
Measured Kd, listed per entry for reference.
Reply with just the number (in nM).

Solved cases below.
BINDER | RESULT_UNIT | Kd
H4H14728P (antibody, human IgG4 S228P, kappa, V domains shown, Fully human anti-IL-36R antibody) VH: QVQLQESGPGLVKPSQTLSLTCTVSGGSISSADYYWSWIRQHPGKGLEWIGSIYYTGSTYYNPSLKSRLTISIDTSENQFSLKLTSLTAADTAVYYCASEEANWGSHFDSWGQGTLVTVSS VL: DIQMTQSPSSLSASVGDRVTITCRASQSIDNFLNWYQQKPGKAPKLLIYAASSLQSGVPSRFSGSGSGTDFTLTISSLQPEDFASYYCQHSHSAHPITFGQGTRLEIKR | nM | 40.9
H4H14700P2 (antibody, human IgG4 S228P, kappa, V domains shown, Fully human anti-IL-36R antibody) VH: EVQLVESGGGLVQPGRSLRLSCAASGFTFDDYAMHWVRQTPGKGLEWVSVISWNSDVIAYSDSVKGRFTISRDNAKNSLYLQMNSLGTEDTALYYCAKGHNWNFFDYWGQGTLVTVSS VL: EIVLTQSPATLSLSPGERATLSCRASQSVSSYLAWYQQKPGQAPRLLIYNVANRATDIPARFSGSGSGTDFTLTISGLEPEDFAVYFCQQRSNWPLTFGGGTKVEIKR | nM | 0.555

# input for lookup
H4H14699P2 (antibody, human IgG4 S228P, kappa, V domains shown, Fully human anti-IL-36R antibody) VH: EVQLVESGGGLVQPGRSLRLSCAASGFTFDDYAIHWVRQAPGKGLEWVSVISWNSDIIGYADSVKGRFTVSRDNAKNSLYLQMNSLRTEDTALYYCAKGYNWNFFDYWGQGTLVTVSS VL: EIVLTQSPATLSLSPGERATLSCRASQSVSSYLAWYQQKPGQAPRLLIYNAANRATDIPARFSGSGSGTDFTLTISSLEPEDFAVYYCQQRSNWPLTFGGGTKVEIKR yielded Kd of 1.06
